System: 13 aa tau peptides of hT40
Assay: Alanine scanning mutagenesis (ASM) peptide ELISA
Assay type: binding, human
Conditions: alanine substituted peptides; numbering SEQ ID NO: 1
List of critical binding residues values.
Quantity name: critical binding residues

- Molecule: "CA9: anti-tau clone, Tables 2 and 10; SEQ ID NO: 371 (protein, CA9 amino acid sequence) scFv: QVQLQESGPSLVKPSQTLSLTCTVSGFSLTSNSVGWVRQAPGKAPEWVAGIDTDGEEGYNPALNSRLSITRDTSKSQVSLSLSSVTSEDTAVYYCGRSYRSDGLAYGYVQAIDYWGPGLLVTVSSEGKSSGASGESKVDDQAVLTQPASVSGSLGQRVSITCSGSFIGISSVGWFQQLPGSGLRTIIVASDGRPSGVPDRFSMSKSGNTATLTISSLQAEDEADYFCGSSDRTQYTGVFGSGTRLTVLG"
  Observed: "370 (K), and/or 374 (H)"
- Molecule: "E2E8: dGAE (391E) specific clone, Table 9; SEQ ID NO: 248 (protein, E2E8 amino acid sequence) scFv: QVQLQESGPSLVKPSQTLSLTCTVSGFSLTDRGVAWVRQAPGKALEWVGTMRSGGTIDYNPALKSRLSITRDTSKSQVFLSLSSVTTEDMAMYYCARGYLSGDRYAWGRGLLVTVSSEGKSSGASGESKVDDQAVLTQPSSVSKSLGQSVSIACSGSRSDIGYGNYVSWFQQIPGSAPKLLIYDTNTRASGVPDRFSGARSGNTATLTINSLQAEDEADYYCANIDSSRSHLFGSGTRLTVLG"
  Observed: "391 (E)"
- Molecule: "S1D12: sheep-derived anti-tau core clone; scFv SEQ ID NO: 32, VH 443, VL 444 (protein, S1D12 amino acid sequence) scFv: QVQLQESGPSLVKPSQTLSLTCTVSGFSLNNNAVGWVRQAPGKVPESLVGCSSDGTCYYNSALKSRLDITRDTSKNQISLSLSSVTTDDAAVYYCTRGHYSIYGYDYLGTIDYWGPGLLVTVSSEGKSSGASGESKVDDQAVLTQPSSVSGSLGQRVSITCSGSSSNVGGGNSVGWYQHLPGSGLKTIIYDTNSRPSGVPDRFSGSRSGNTATLTINSLQAEDEGDYYCVTGDSTTHDDLVGSGTRLTVLG"
  Observed: "343 (K), 346 (F) and/or 349 (R)"
